List of remaining activity at 25 µM values.
biological target: E. coli CsgA (Escherichia coli); construct: made in house; host or cells: E. coli NEB 3016 slyD::kan, pET11d; test: In vitro ThioflavinT assay of CsgA aggregation (CsgA ThT Assay); assay type: biochemical; conditions: read-out: CsgA ThT Assay (10 μM CsgA) % Control AUC at 1005 minutes, 25 μM (activity range), CsgA 10 μM, black plates; compound 25 μM; 1005 minutes; class symbol
Sequence (P28307 23-151): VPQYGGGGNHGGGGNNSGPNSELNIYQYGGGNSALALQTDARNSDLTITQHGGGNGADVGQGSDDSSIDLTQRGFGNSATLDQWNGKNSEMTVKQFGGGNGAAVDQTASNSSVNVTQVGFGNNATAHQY
measuredParameter: remaining activity at 25 µM

[[record]]
molecule = "CNC(=O)CN1CC(C(=O)O)n2c(c(-c3cccc(C(F)(F)F)c3)c(Cc3cccc4ccccc34)cc2=O)S1(=O)=O (stereo not shown)"
obsvalue = "> 60%"

[[record]]
molecule = "CCc1c(Cc2cccc3ccccc23)c(-c2cccc(C(F)(F)F)c2)c2n(c1=O)C(C(=O)O)CN(C1CCCCC1)S2(=O)=O (stereo not shown)"
obsvalue = "11 to 31%"

[[record]]
molecule = "C/C=C\\c1c(Cc2cccc3ccccc23)c(-c2cccc(C(F)(F)F)c2)c2n(c1=O)C(C(=O)O)CN(C)S2(=O)=O (stereo not shown)"
obsvalue = "11 to 31%"

[[record]]
molecule = "O=C(O)C1C[S+]([O-])c2c(-c3cccc(C(F)(F)F)c3)c(Cc3cccc4ccccc34)cc(=O)n21 (racemic) [Compound 027b]"
obsvalue = "> 60%"

[[record]]
molecule = "CN(C)Cc1c(Cc2cccc3ccccc23)c(-c2cccc(C(F)(F)F)c2)c2n(c1=O)C(C(=O)O)CS2 (stereo not shown)"
obsvalue = "> 60%"

[[record]]
molecule = "O=c1cc(Cc2cccc3ccccc23)c(-c2cccc(C(F)(F)F)c2)c2n1C(CO)CS2 (stereo not shown)"
obsvalue = "> 60%"

[[record]]
molecule = "O=C(O)C1CSc2c(-c3cccc(C(F)(F)F)c3)c(Cc3cccc4ccccc34)c(CO)c(=O)n21 (stereo not shown)"
obsvalue = "31 to 60%"

[[record]]
molecule = "O=C(O)c1c(CCc2ccccc2)sc2c(-c3cccc(C(F)(F)F)c3)c(Cc3cccc4ccccc34)cc(=O)n12"
obsvalue = "> 60%"

[[record]]
molecule = "Cn1c(=O)c2c(ncn2CCCCCCN2CC(C(=O)O)n3c(c(-c4cccc(C(F)(F)F)c4)c(Cc4cccc5ccccc45)cc3=O)S2(=O)=O)n(C)c1=O (stereo not shown)"
obsvalue = "> 60%"

[[record]]
molecule = "CCCc1c(Cc2cccc3ccccc23)c(-c2cccc(C(F)(F)F)c2)c2n(c1=O)C(C(=O)O)CN(C)S2(=O)=O (stereo not shown)"
obsvalue = "31 to 60%"

[[record]]
molecule = "Nc1c(Cc2cccc3ccccc23)c(-c2cccc(C(F)(F)F)c2)c2n(c1=O)C(C(=O)O)CNS2(=O)=O (stereo not shown)"
obsvalue = "31 to 60%"

[[record]]
molecule = "O=C(O)C1CN(CCCO)S(=O)(=O)c2c(-c3cccc(C(F)(F)F)c3)c(Cc3cccc4ccccc34)c(NC3CCCC3)c(=O)n21 (stereo not shown)"
obsvalue = "11 to 31%"

[[record]]
molecule = "CCCCCN1CC(C(=O)O)n2c(c(-c3cccc(C(F)(F)F)c3)c(Cc3cccc4ccccc34)c(N)c2=O)S1(=O)=O (stereo not shown)"
obsvalue = "31 to 60%"

[[record]]
molecule = "CN1CC(C(=O)O)n2c(c(-c3cccc(C(F)(F)F)c3)c(Cc3cccc4ccccc34)c(NCc3ccccc3)c2=O)S1(=O)=O (stereo not shown)"
obsvalue = "11 to 31%"

[[record]]
molecule = "CCCN1CC(C(=O)O)n2c(c(-c3cccc(C(F)(F)F)c3)c(Cc3cccc4ccccc34)c(NC3CCCC3)c2=O)S1(=O)=O (stereo not shown)"
obsvalue = "31 to 60%"

[[record]]
molecule = "COc1ccc(CN2C[C@@H](C(=O)O)n3c(c(-c4cccc(C(F)(F)F)c4)c(Cc4cccc5ccccc45)cc3=O)S2(=O)=O)cc1 (single isomer, unassigned) [Compound 026a]"
obsvalue = "31 to 60%"

[[record]]
molecule = "CN(C)CCN1CC(C(=O)O)n2c(c(-c3cccc(C(F)(F)F)c3)c(Cc3cccc4ccccc34)cc2=O)S1(=O)=O (stereo not shown)"
obsvalue = "> 60%"

[[record]]
molecule = "O=C(O)C1CN(C[C@H](O)CO)S(=O)(=O)c2c(-c3cccc(C(F)(F)F)c3)c(Cc3cccc4ccccc34)cc(=O)n21 (stereo partly shown) [Compound 065a]"
obsvalue = "> 60%"

[[record]]
molecule = "CCCCN1CC(C(=O)O)n2c(c(-c3cccc(C(F)(F)F)c3)c(Cc3cccc4ccccc34)cc2=O)S1(=O)=O (single isomer, unassigned) [Compound 021a]"
obsvalue = "31 to 60%"

[[record]]
molecule = "CC(C)N1CC(C(=O)O)n2c(c(-c3cccc(C(F)(F)F)c3)c(Cc3cccc4ccccc34)c(NC3CCCC3)c2=O)S1(=O)=O (stereo not shown)"
obsvalue = "11 to 31%"

[[record]]
molecule = "O=C(O)CN1CC(C(=O)O)n2c(c(-c3cccc(C(F)(F)F)c3)c(Cc3cccc4ccccc34)cc2=O)S1(=O)=O (stereo not shown)"
obsvalue = "> 60%"

[[record]]
molecule = "O=C(O)C1CN(CCO)S(=O)(=O)c2c(-c3cccc(C(F)(F)F)c3)c(Cc3cccc4ccccc34)cc(=O)n21 (stereo not shown)"
obsvalue = "31 to 60%"

[[record]]
molecule = "Nc1c(Cc2cccc3ccccc23)c(-c2cccc(C(F)(F)F)c2)c2n(c1=O)C(C(=O)O)CS2(=O)=O (stereo not shown)"
obsvalue = "> 60%"

[[record]]
molecule = "CCCN1CC(C(=O)O)n2c(c(-c3cccc(C(F)(F)F)c3)c(Cc3cccc4ccccc34)c(Br)c2=O)S1(=O)=O (stereo not shown)"
obsvalue = "31 to 60%"

[[record]]
molecule = "Cn1c(=O)c2c(nc(CCCCCCCN3CC(C(=O)O)n4c(c(-c5cccc(C(F)(F)F)c5)c(Cc5cccc6ccccc56)cc4=O)S3(=O)=O)n2C)n(C)c1=O (stereo not shown)"
obsvalue = "31 to 60%"


These entries and their values trace back to patent US20230131899A1.
